assay: Serum octreotide level (RIA) after subcutaneous injection in neonatal rats; conditions: Sabra, rat, sc, 20 ug
Metric Name: level at 9 h
Answer shape: numeric part, then the unit.

Kindly note the recorded level at 9 h for C[C@@H](O)[C@@H]1NC(=O)[C@H](CCCCN)NC(=O)[C@@H](Cc2c[nH]c3ccccc23)NC(=O)[C@H](Cc2ccccc2)NC(=O)[C@@H](NC(=O)[C@H](N)Cc2ccccc2)CSSC[C@@H](C(=O)N[C@H](CO)[C@@H](C)O)NC1=O [octreotide] , which is 26.4 ng/mL

* * *

experiment: Serum octreotide level (RIA) after subcutaneous injection in neonatal rats; settings: Sabra, rat, sc, 0.7 μg/g BW
Metric Name: half-life (h)
State the answer as a number, implicitly in h.

Entry C[C@@H](O)[C@@H]1NC(=O)[C@H](CCCCN)NC(=O)[C@@H](Cc2c[nH]c3ccccc23)NC(=O)[C@H](Cc2ccccc2)NC(=O)[C@@H](NC(=O)[C@H](N)Cc2ccccc2)CSSC[C@@H](C(=O)N[C@H](CO)[C@@H](C)O)NC1=O [octreotide] ; half-life = 1.63

These data points were gathered from paper PMC2477751.
